Value source: ChEMBL document CHEMBL5325424

assay: Selectivity index, ratio of CC50 for mouse RAW264.7 cells to IC50 for Trypanosoma cruzi Y trypomastigotes infected in African green monkey Vero cells; format: toxicity; conditions: read-out: Ratio CC50/IC50
Hi there, I'd appreciate the recorded selectivity ratio for every entry that follows.
Please reply with the value in numeric form only.

-- ask What value of selectivity ratio has been reported for the following compound? S=C(N/N=C/c1ccccn1)Nc1ccccc1
-- reply 1

-- ask Entry CN1C(=O)CS/C1=N/N=C/c1ccccn1 : reported selectivity ratio = ?
-- reply 0.6

-- ask selectivity ratio for C/C(=N\N=C1\SC(C(C)C)C(=O)N1c1ccccc1)c1ccncc1 (stereo not drawn) ?
-- reply 197

-- ask Looking for the measured selectivity ratio of C/C(=N\N=C1/NC(=O)C(C(C)C)S1)c1ccncc1 (stereo not drawn) , can you help?
-- reply 0.5

-- ask Which measured selectivity ratio value corresponds to O=C(Cn1ccnc1[N+](=O)[O-])NCc1ccccc1 ?
-- reply 8.5

-- ask Item C/C(=N\N=C1/SCC(=O)N1C)c1ccncc1 has what recorded selectivity ratio?
-- reply 1.1

-- ask # get_value(readout='selectivity ratio', item= C/C(=N\N=C1/SCC(=O)N1c1ccccc1)c1ccccn1 )
-- reply 53.2

-- ask What value of selectivity ratio has been recorded for this entry: CNC(=S)N/N=C(\C)c1ccncc1
-- reply 11.1
